test system: E. coli ATCC 25922; assay type: cell-based, Escherichia coli; settings: ATCC 25922
Peptide text beside a SMILES is read from it.
measured quantity: MIC E. coli ATCC 25922 (µM)
# output: bare number, implied unit µM

INPUT: Record request: MIC E. coli ATCC 25922 value, item CC(C)C[C@H](NC(=O)[C@H](CC(C)C)NC(=O)[C@H](CCCCN)NC(=O)CNC(=O)[C@H](CC(C)C)NC(=O)[C@H](C)NC(=O)[C@H](CCCCN)NC(=O)[C@H](CC(C)C)NC(=O)[C@H](C)NC(=O)[C@H](CO)NC(=O)[C@H](CC(C)C)NC(=O)[C@H](C)NC(=O)CN)C(N)=O [DFT528, GALSALKALGKLL] (H-GALSALKALGKLL-NH2; N-terminus assumed)
OUTPUT: 25

INPUT: Record request: MIC E. coli ATCC 25922 value, item CC[C@H](C)[C@H](NC(=O)[C@H](CCCCN)NC(=O)[C@H](CCCNC(=N)N)NC(=O)[C@H](CC(C)C)NC(=O)[C@H](Cc1c[nH]c2ccccc12)NC(=O)[C@H](Cc1c[nH]c2ccccc12)NC(=O)[C@H](Cc1c[nH]c2ccccc12)NC(=O)[C@@H](N)Cc1c[nH]c2ccccc12)C(=O)O [WW298, WWWWLRKI] (H-WWWWLRKI-OH; N-terminus and C-terminus assumed)
OUTPUT: 12.5

* * *

tested on: S. aureus USA300; test: microbe, parasite or virus in culture; type: cell-based, Staphylococcus aureus; details: USA300
Square brackets hold non-standard residues; d marks the D form. Peptide text beside a SMILES is read from it.
measured quantity: MIC SA (S. aureus USA300) (µM)
# output: bare number, implied unit µM

{"columns": ["compound", "result number"],
 "data": [
  ["CC(C)C[C@H](NC(=O)[C@H](CC(C)C)NC(=O)[C@H](CCCCN)NC(=O)[C@H](CC(C)C)NC(=O)CNC(=O)[C@H](CC(C)C)NC(=O)[C@H](CO)NC(=O)[C@H](CC(C)C)NC(=O)[C@H](CC(C)C)NC(=O)[C@H](CC(C)C)NC(=O)[C@H](CCCCN)NC(=O)[C@H](CC(C)C)NC(=O)CN)C(N)=O [DFT561, GLKLLLSLGLKLL] (H-GLKLLLSLGLKLL-NH2; N-terminus and C-terminus assumed)", 1.6],
  ["CC(C)C[C@H](NC(=O)[C@H](CC(C)C)NC(=O)CNC(=O)[C@H](CC(C)C)NC(=O)[C@H](CC(C)C)NC(=O)[C@H](CO)NC(=O)[C@H](CC(C)C)NC(=O)[C@H](CC(C)C)NC(=O)[C@H](CO)NC(=O)[C@H](CC(C)C)NC(=O)[C@H](CC(C)C)NC(=O)[C@H](CCCCN)NC(=O)CN)C(N)=O [DFT527, GKLLSLLSLLGLL] (H-GKLLSLLSLLGLL-NH2; N-terminus and C-terminus assumed)", 3.1]
]}

As a next step, examine the compound that follows.
INPUT: Record request: MIC SA (S. aureus USA300) value, item CC(C)C[C@@H](NC(=O)[C@@H](CC(C)C)NC(=O)[C@@H](CCCCN)NC(=O)[C@@H](CC(C)C)NC(=O)CNC(=O)[C@@H](CC(C)C)NC(=O)[C@@H](CO)NC(=O)[C@@H](CC(C)C)NC(=O)[C@@H](CC(C)C)NC(=O)[C@@H](CC(C)C)NC(=O)[C@@H](CO)NC(=O)[C@@H](CC(C)C)NC(=O)CN)C(N)=O [DFT503d, GLSLLLSLGLKLL] (H-G[dL][dS][dL][dL][dL][dS][dL]G[dL][dK][dL][dL]-NH2; N-terminus and C-terminus assumed)
OUTPUT: 1.6

Values compiled from patent US12173088B2.
